Hello, the source for this data is paper PMC2248166, in case you need it.

- target or system: HLA B*5801 (Homo sapiens, UniProt P01889, A329T/C349S/D201E/D98Y/E176V/E187L/E204Q/E69T/G107R/I218V/I90N/K202T/L105A/L119I/N104I/N87E/Q89R/Q94S/R106L/R155S/R180L/R86G/S101N/S121R/S35A/S48A/T118I/V127L/V306I/V36M/Y140S/Y91M)
- Format: binding
Classify on Normalized average relative binding affinity (ARB), HLA B*5801 using 0 (below 0.1), 1 (0.1 to below 0.3), 2 (0.3 or more)

Some solved cases for reference:
>  <residue sequence>
XXYXXXXXX [3064.0060]

>  <answer label>
2

$$$$
>  <residue sequence>
XXAXXXXXX [3064.0041]

>  <answer label>
2

$$$$
>  <residue sequence>
MXXXXXXXX [3064.0011]

>  <answer label>
2

$$$$
>  <residue sequence>
XCXXXXXXX [3064.0022]

>  <answer label>
0

$$$$

*Q* For WXXXXXXXX [3064.0019] , which Normalized average relative binding affinity (ARB), HLA B*5801 bin applies?
*A* 1

*Q* For CXXXXXXXX [3064.0002] , which Normalized average relative binding affinity (ARB), HLA B*5801 bin applies?
*A* 1

*Q* For NXXXXXXXX [3064.0012] , which Normalized average relative binding affinity (ARB), HLA B*5801 bin applies?
*A* 0

*Q* For XYXXXXXXX [3064.0040] , which Normalized average relative binding affinity (ARB), HLA B*5801 bin applies?
*A* 0

====

- target or system: HLA B*1501 (Homo sapiens, UniProt P01889, A329T/A93T/A95T/C349S/D201E/D98Y/E187L/E204Q/E69M/E70A/K202T/N87E/Q94N/R155S/R180W/S121R/S35A/S48A/V306I/V36M/Y140S/Y91S)
- test name: biochemical
pIC50: −log10 of the molar value. Where a SMILES comes first, the peptide text is derived from it.
Decide using pIC50: a value greater than or equal to 8 is 1, a smaller one is -1.

Some solved cases for reference:
>  <compound>
CC[C@H](C)[C@H](NC(=O)[C@@H](N)CCCCN)C(=O)N[C@@H](CCCCN)C(=O)N[C@@H](Cc1c[nH]cn1)C(=O)N[C@@H](CCCCN)C(=O)NCC(=O)N[C@@H](CCSC)C(=O)N[C@@H](CO)C(=O)N[C@@H](Cc1ccccc1)C(=O)O [3102.0851] (H-KIKHKGMSF-OH)

>  <answer label>
-1

$$$$
>  <compound>
CC[C@H](C)[C@H](N)C(=O)N[C@H](C(=O)N[C@@H](Cc1ccc(O)cc1)C(=O)N[C@@H](CS)C(=O)N[C@@H](CC(C)C)C(=O)N[C@H](C(=O)N[C@H](C(=O)N[C@@H](Cc1c[nH]cn1)C(=O)N[C@@H](CCSC)C(=O)O)[C@@H](C)O)C(C)C)[C@@H](C)O [3102.0993] (H-ITYCLVTHM-OH)

>  <answer label>
-1

$$$$
>  <compound>
CC[C@H](C)[C@H](NC(=O)[C@H](CO)NC(=O)[C@@H](N)Cc1c[nH]c2ccccc12)C(=O)N[C@@H](Cc1ccc(O)cc1)C(=O)N[C@@H](CC(C)C)C(=O)N[C@@H](CO)C(=O)N[C@@H](CC(C)C)C(=O)N[C@@H](Cc1c[nH]cn1)C(=O)N[C@@H](Cc1ccc(O)cc1)C(=O)O [3102.0867] (H-WSIYLSLHY-OH)

>  <answer label>
-1

$$$$

*Q* # check: pIC50 of CC(C)C[C@H](NC(=O)[C@@H](N)C(C)C)C(=O)N[C@@H](Cc1ccccc1)C(=O)N[C@@H](CCC(=O)O)C(=O)N[C@H](C(=O)N[C@@H](Cc1ccccc1)C(=O)N[C@H](C(=O)N[C@H](C(=O)N[C@@H](Cc1ccccc1)C(=O)O)C(C)C)C(C)C)C(C)C [3102.0818] (H-VLFEVFVVF-OH) is greater than or equal to 8
*A* 1
